- system name: Recombinant autotaxin (Homo sapiens, UniProt Q13822)
- Construct: made in house; host or cells: Hi5 insect cells (baculovirus)
- measurement protocol: Autotaxin assay (Amplex Red, LPC substrate)
- Type: biochemical
- condition context: recombinant autotaxin, LPC substrate, Amplex Red detection; values given as upper bounds
Let's look at some compounds and their measured IC50.

Nc1n[nH]c2ccc(C(=O)N3CCN(C4CCN(C(=O)OCc5ccc(C(F)(F)F)cc5)CC4)CC3)cc12    < 10000 nM

Request: Identify measured IC50 associated with O=C(NC1CCC(N2CCN(C(=O)OCc3ccccc3)CC2)CC1)c1ccc2[nH]nnc2c1 (stereo not shown)
Result: < 30000 nM

Request: Identify measured IC50 associated with O=C(OCc1ccc(C(F)(F)F)cc1)N1CCN(C2CCN(C(=O)c3ccc4[nH]nnc4c3)CC2)CC1
Result: < 1000 nM

Request: Identify measured IC50 associated with Cc1oc(-c2ccccc2)cc1COC(=O)N1CCN(C2CCN(C(=O)c3ccc4[nH]nnc4c3)CC2)CC1
Result: < 10000 nM

Request: Identify measured IC50 associated with O=C(OCc1cccc(OC(F)(F)F)c1)N1CCN(C2CCN(C(=O)c3ccc4[nH]nnc4c3)CC2)CC1
Result: < 1000 nM

Request: Identify measured IC50 associated with O=C(OCc1cc(Cl)cc(Cl)c1)N1CCC(NC2CCN(C(=O)c3ccc4[nH]nnc4c3)CC2)C1 (stereo not shown)
Result: < 1000 nM

Request: Identify measured IC50 associated with O=C(OCc1ccc(C(F)(F)F)c(F)c1F)N1CCC(N2CCN(C(=O)c3ccc4[nH]nnc4c3)CC2)CC1
Result: < 1000 nM
